All values here come from patent US20180099931A1.

# targetOrSystem: F508delCFTR (Homo sapiens, UniProt P13569, DEL508-508)
# Construct: expressed in transfected cells; host or cells: CFBE41o- human lung-derived epithelial cells (CFBE4lo-F508delCFTR-HRP), doxycycline-inducible
# Sequence (P13569 with tags, fused parts or gaps DEL508-508): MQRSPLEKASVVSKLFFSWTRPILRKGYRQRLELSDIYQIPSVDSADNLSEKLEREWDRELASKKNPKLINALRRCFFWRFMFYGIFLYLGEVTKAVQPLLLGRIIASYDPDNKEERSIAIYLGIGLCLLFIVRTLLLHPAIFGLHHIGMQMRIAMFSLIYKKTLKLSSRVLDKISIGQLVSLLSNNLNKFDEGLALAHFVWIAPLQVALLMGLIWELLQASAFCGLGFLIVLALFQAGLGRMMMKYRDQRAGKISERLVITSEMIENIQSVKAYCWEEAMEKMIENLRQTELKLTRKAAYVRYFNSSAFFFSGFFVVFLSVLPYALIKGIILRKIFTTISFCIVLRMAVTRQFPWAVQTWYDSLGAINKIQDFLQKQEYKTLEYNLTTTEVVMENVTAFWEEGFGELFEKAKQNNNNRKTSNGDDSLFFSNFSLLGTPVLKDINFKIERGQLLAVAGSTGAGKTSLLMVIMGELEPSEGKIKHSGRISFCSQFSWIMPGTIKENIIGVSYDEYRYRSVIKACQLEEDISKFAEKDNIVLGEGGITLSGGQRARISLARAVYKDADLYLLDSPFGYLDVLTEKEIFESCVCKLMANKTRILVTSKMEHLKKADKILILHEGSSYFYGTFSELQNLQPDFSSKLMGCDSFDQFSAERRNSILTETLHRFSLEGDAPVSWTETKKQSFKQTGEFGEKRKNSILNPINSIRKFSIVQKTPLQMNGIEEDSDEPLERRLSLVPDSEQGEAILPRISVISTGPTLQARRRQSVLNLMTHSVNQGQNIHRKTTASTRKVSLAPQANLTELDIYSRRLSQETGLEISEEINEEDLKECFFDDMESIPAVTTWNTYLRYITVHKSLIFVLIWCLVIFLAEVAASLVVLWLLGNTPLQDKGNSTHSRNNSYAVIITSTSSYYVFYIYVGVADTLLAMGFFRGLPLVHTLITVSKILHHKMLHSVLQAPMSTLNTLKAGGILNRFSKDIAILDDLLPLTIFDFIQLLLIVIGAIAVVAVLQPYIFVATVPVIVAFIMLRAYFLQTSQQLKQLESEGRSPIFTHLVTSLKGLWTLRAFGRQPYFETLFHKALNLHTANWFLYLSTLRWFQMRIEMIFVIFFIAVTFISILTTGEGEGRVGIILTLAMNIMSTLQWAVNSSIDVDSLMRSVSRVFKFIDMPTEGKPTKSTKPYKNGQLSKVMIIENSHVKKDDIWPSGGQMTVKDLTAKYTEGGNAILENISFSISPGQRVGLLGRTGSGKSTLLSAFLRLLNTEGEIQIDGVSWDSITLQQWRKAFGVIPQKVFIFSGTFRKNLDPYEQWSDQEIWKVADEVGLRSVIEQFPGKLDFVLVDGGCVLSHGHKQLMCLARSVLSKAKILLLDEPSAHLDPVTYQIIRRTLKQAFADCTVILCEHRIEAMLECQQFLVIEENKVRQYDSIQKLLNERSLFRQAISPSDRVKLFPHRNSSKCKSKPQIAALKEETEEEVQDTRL
# experimentNotes: Cell Surface Expression-Horse Radish Peroxidase (CSE-HRP) Assay;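 further: percent of the 2 µM on-plate positive control corrector response above DMSO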
# Type: cell-based
# setupConditions: test compound without co-corrector; maximum at any tested concentration, normalized to on-plate positive control; read-out: Maximum % activity (without co-corrector)
Task for the reader: assign each of the following compounds its reported Emax.

In: Data request, read-out Emax, for COc1ccc(C(C)(C)C)cc1CN[C@H]1[C@H](C(C)(C)C)[C@@H](C(=O)O)N(C(=O)C2CCCCC2C)[C@H]1c1ccccc1 (stereo partly drawn) [III-195]
Out: > 200%

In: Data request, read-out Emax, for COc1ccc(C(C)(C)C)cc1CN[C@H]1[C@H](C(C)(C)C)[C@@H](C(=O)O)N(C(=O)C2CC(F)(F)C2)[C@H]1c1ccccc1 [II-336]
Out: 100 to 200%

In: Data request, read-out Emax, for COc1ccc(C(F)(F)F)cc1CN[C@H]1[C@H](C(C)(C)OC)[C@@H](C(=O)O)N(C(=O)C2CCCCC2)[C@H]1c1cccnc1OC [II-436]
Out: 100 to 200%

In: Data request, read-out Emax, for COc1nc(C(C)(C)C)ccc1CN[C@H]1[C@H](C(C)(C)C)[C@@H](C(=O)O)N(C(=O)C2Cc3ccccc3O2)[C@H]1c1ccccc1 (single isomer, unassigned) [II-430]
Out: < 100%

In: Data request, read-out Emax, for CCCCOC(=O)N1[C@H](C(=O)O)[C@@H](C(C)(C)C)[C@H](NCc2cc(C(C)(C)C)ccc2OC)[C@@H]1c1ccccc1 [II-383]
Out: > 200%

In: Data request, read-out Emax, for COc1ccc(C23CC(C2)C3)cc1CN[C@H]1[C@H](C(C)(C)C)[C@@H](C(=O)O)N(C(=O)C2CCCCC2)[C@H]1c1cccnc1OC [II-486]
Out: > 200%
